Test system: LOVO xenografts
Assay: LOVO xenografts in nude mice
Type: in vivo
Conditions: LOVO xenograft nude mice, 1 mg/kg
parameter: Body weight (g) Post-dose
Give a bare numeral; the unit g is implied.

Complete the entry with Body weight (g) Post-dose for CC[C@]1(O)C[C@@H]2CN(CCc3c([nH]c4ccccc34)[C@@](C(=O)OC)(c3cc4c(cc3OC)N(C)[C@H]3[C@@](O)(C(=O)OC)[C@H](OC(C)=O)[C@]5(CC)C=CCN6CC[C@]43[C@@H]65)C2)C1 [Vinblastine, reference compound] 19.6

Complete the entry with Body weight (g) Post-dose for CCC1=CC2CN(C1)Cc1c([nH]c3ccccc13)C(C(=O)OC)(c1cc3c(cc1OC)N(C)C1C(O)(C(=O)NNC(=O)C4CCCN4C(=O)CNC(=O)OCc4ccccc4)C(O)C4(CC)C=CCN5CCC31C54)C2 (stereo not shown) 24.1

Complete the entry with Body weight (g) Post-dose for CC[C@]1(O)C[C@@H]2CN(CCc3c([nH]c4ccccc34)[C@@](C(=O)OC)(c3cc4c(cc3OC)N(C)[C@H]3[C@@](O)(C(=O)NN)[C@H](O)[C@]5(CC)C=CCN6CC[C@]43[C@@H]65)C2)C1 [JJ-CCJ, hydrazinolyzed vinblastine] 17.3

Complete the entry with Body weight (g) Post-dose for CCC1=C[C@@H]2CN(C1)Cc1c([nH]c3ccccc13)[C@@](C(=O)OC)(c1cc3c(cc1OC)N(C)[C@H]1[C@@](O)(C(=O)NN)[C@H](O)[C@]4(CC)C=CCN5CC[C@]31[C@@H]54)C2 [JJ-CCRB, hydrazinolyzed vinorelbine] 16.4
